Data credit: PubChem BioAssay AID1963842

# System: 677734-321-R-J1-PDC complex spheroid viability;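 further: spheroids exposed to compounds for one week; 100% = vehicle DMSO treated spheroids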
# assay method text: Anticancer human tumor 677734-321-R-J1-PDC patient-derived soft tissue sarcoma cell line growth inhibition [POLQ]; active means viability on the fitted dose curve at most 10% of control; inactive means the rest
# condition: second compound 10 µM; first compound 0.316 µM
The reply should be one of these categories: label 1 for active, label 0 for inactive

| compound | group |
| --- | --- |
| COc1cc2cc(C(=O)CCC(=O)O)sc2cc1OC + Nc1ccc(C#CCN(C(=O)Cc2ncc(C(F)(F)F)cc2C(F)(F)F)c2ccc(F)cc2)nn1 | label 0 |
| C#Cc1c(F)ccc2cc(O)cc(-c3ncc4c(N5CC6CCC(C5)N6)nc(OCC56CCCN5CC(F)C6)nc4c3F)c12 (stereo not given) + Nc1ccc(C#CCN(C(=O)Cc2ncc(C(F)(F)F)cc2C(F)(F)F)c2ccc(F)cc2)nn1 | label 0 |
| CC1COCCN1c1cc(-c2ccnn2C)c2ccnc(-c3ccn[nH]3)c2n1 (stereo not given) + Nc1ccc(C#CCN(C(=O)Cc2ncc(C(F)(F)F)cc2C(F)(F)F)c2ccc(F)cc2)nn1 | label 0 |
| CCc1cc2c(N3CCc4c(cc(Cn5ccnc5)cc4-c4cn(C)nc4C(F)(F)F)C3=O)cc(C)nc2c(OC)n1 + COC1C(OC(N)=O)C(O)C(Oc2ccc3c(O)c(NC(=O)c4ccc(O)c(CC=C(C)C)c4)c(=O)oc3c2C)OC1(C)C | label 0 |
| CCc1c2c(nc3ccc(O)cc13)-c1cc3c(c(=O)n1C2)COC(=O)[C@]3(O)CC + Cc1cccc(N(C)C(=O)C2C(O)CCN2c2nc(C)cc(C(F)(F)F)c2C#N)c1 | label 1 |

Request: What outcome does the record of this test show for COc1cccc2c1C(=O)c1c(O)c3c(c(O)c1C2=O)CC(O)(C(=O)CO)CC3OC1CC(N)C(O)C(C)O1 (stereo not given) + Cc1cccc(N(C)C(=O)C2C(O)CCN2c2nc(C)cc(C(F)(F)F)c2C#N)c1 ?
Response: label 1

Request: What outcome does the record of this test show for COc1ccc([C@@H](O)c2cc(-c3ncnc4cc(N5CCOCC5)ccc34)c(F)cc2Cl)nn1 + Nc1ccc(C#CCN(C(=O)Cc2ncc(C(F)(F)F)cc2C(F)(F)F)c2ccc(F)cc2)nn1 ?
Response: label 0

Request: What outcome does the record of this test show for O=C(Nc1ccc(O)c(NS(=O)(=O)c2ccc(F)cc2)c1)c1ccc(-c2ccccc2)cc1 + Nc1ccc(C#CCN(C(=O)Cc2ncc(C(F)(F)F)cc2C(F)(F)F)c2ccc(F)cc2)nn1 ?
Response: label 0

Request: What outcome does the record of this test show for CC(C)n1c(=O)n(C)c2cnc3cc(F)c(-c4ccc(OCCCN5CCCCC5)nc4)cc3c21 + Nc1ccc(C#CCN(C(=O)Cc2ncc(C(F)(F)F)cc2C(F)(F)F)c2ccc(F)cc2)nn1 ?
Response: label 0

Request: What outcome does the record of this test show for Nc1ccn(C2OC(CO)C(O)C2(F)F)c(=O)n1 (stereo not given) + Nc1ccc(C#CCN(C(=O)Cc2ncc(C(F)(F)F)cc2C(F)(F)F)c2ccc(F)cc2)nn1 ?
Response: label 0

Request: What outcome does the record of this test show for C#Cc1c(F)ccc2cc(O)cc(-c3ncc4c(N5CC6CCC(C5)N6)nc(OCC56CCCN5CC(F)C6)nc4c3F)c12 (stereo not given) + Cc1cccc(N(C)C(=O)C2C(O)CCN2c2nc(C)cc(C(F)(F)F)c2C#N)c1 ?
Response: label 0

Request: What outcome does the record of this test show for O=C(Nc1ccc(O)c(NS(=O)(=O)c2ccc(F)cc2)c1)c1ccc(-c2ccccc2)cc1 + Cc1cccc(N(C)C(=O)C2C(O)CCN2c2nc(C)cc(C(F)(F)F)c2C#N)c1 ?
Response: label 0

Request: What outcome does the record of this test show for COc1cccc2c1C(=O)c1c(O)c3c(c(O)c1C2=O)CC(O)(C(=O)CO)CC3OC1CC(N)C(O)C(C)O1 (stereo not given) + COC1C(OC(N)=O)C(O)C(Oc2ccc3c(O)c(NC(=O)c4ccc(O)c(CC=C(C)C)c4)c(=O)oc3c2C)OC1(C)C ?
Response: label 1

Request: What outcome does the record of this test show for CCc1cc2c(N3CCc4c(cc(Cn5ccnc5)cc4-c4cn(C)nc4C(F)(F)F)C3=O)ccnc2c(OC)n1 + COC1C(OC(N)=O)C(O)C(Oc2ccc3c(O)c(NC(=O)c4ccc(O)c(CC=C(C)C)c4)c(=O)oc3c2C)OC1(C)C ?
Response: label 0

Request: What outcome does the record of this test show for C=CCn1c(=O)c2cnc(Nc3ccc(N4CCN(C)CC4)cc3)nc2n1-c1cccc(C(C)(C)O)n1 + Cc1cccc(N(C)C(=O)C2C(O)CCN2c2nc(C)cc(C(F)(F)F)c2C#N)c1 ?
Response: label 0

Request: What outcome does the record of this test show for C=CC(=O)N1CCN(c2nc(=O)n(-c3c(C)ccnc3C(C)C)c3nc(-c4c(O)cccc4F)c(F)cc23)C(C)C1 (stereo not given) + Cc1cccc(N(C)C(=O)C2C(O)CCN2c2nc(C)cc(C(F)(F)F)c2C#N)c1 ?
Response: label 0

Request: What outcome does the record of this test show for O=c1[nH]cc(F)c(=O)[nH]1 + Cc1cccc(N(C)C(=O)C2C(O)CCN2c2nc(C)cc(C(F)(F)F)c2C#N)c1 ?
Response: label 0

Request: What outcome does the record of this test show for O=C(c1cc(Cc2n[nH]c(=O)c3ccccc23)ccc1F)N1CCN(C(=O)C2CC2)CC1 + COC1C(OC(N)=O)C(O)C(Oc2ccc3c(O)c(NC(=O)c4ccc(O)c(CC=C(C)C)c4)c(=O)oc3c2C)OC1(C)C ?
Response: label 0

Request: What outcome does the record of this test show for CCc1c2c(nc3ccc(O)cc13)-c1cc3c(c(=O)n1C2)COC(=O)[C@]3(O)CC + COC1C(OC(N)=O)C(O)C(Oc2ccc3c(O)c(NC(=O)c4ccc(O)c(CC=C(C)C)c4)c(=O)oc3c2C)OC1(C)C ?
Response: label 1

Request: What outcome does the record of this test show for CCCS(=O)(=O)Nc1ccc(F)c(C(=O)c2c[nH]c3ncc(-c4ccc(Cl)cc4)cc23)c1F + Cc1cccc(N(C)C(=O)C2C(O)CCN2c2nc(C)cc(C(F)(F)F)c2C#N)c1 ?
Response: label 0
